Can you tell me Bacteria (MIC, ug/ml) S.aureus for the items I'm about to list?
Tested on: S.aureus
Type: cell-based, S. aureus (ATCC 25923)
Description: The antimicrobial activity of a lipopeptide can be determined using a method known in the art, for example, the broth-dilution method. […] The growth of the microorganism, evaluated in comparison with a negative control (microorganism grown in the absence of the lipopeptide), is determined by detecting the absorbance of the solution containing the bacterium, for example, at 605 nm. […]
Residues, ends and D or L forms follow the SMILES beside them. *: point of attachment. Myristoyl = CCCCCCCCCCCCCC(=O)*; Lauroyl = CCCCCCCCCCCC(=O)*; Octanoyl = CCCCCCCC(=O)*

CCCCCCCC(=O)N[C@@H](CCCNC(=N)N)C(=O)N[C@@H](Cc1ccccc1)C(=O)N[C@@H](Cc1c[nH]c2ccccc12)C(=O)N[C@@H](CCCNC(=N)N)C(N)=O [Lipopeptide 2] (Octanoyl-RFWR-NH2): 100 µg/mL
N=C(N)NCCC[C@H](NC(=O)[C@H](Cc1c[nH]c2ccccc12)NC(=O)[C@H](Cc1ccccc1)NC(=O)[C@@H](N)CCCNC(=N)N)C(N)=O [Lipopeptide 0] (H-RFWR-NH2; N-terminus and C-terminus assumed): >400 µg/mL
CCCCCCCCCCCC(=O)N[C@@H](CCCNC(=N)N)C(=O)N[C@@H](Cc1ccccc1)C(=O)N[C@@H](Cc1c[nH]c2ccccc12)C(=O)N[C@@H](CCCNC(=N)N)C(N)=O [Lipopeptide 4] (Lauroyl-RFWR-NH2): 3.125 µg/mL

Bacteria (MIC, ug/ml) S.aureus measured on CCCCCCCCCCCCCC(=O)N[C@@H](CCCNC(=N)N)C(=O)N[C@@H](Cc1ccccc1)C(=O)N[C@@H](Cc1c[nH]c2ccccc12)C(=O)N[C@@H](CCCNC(=N)N)C(N)=O [Lipopeptide 5] (Myristoyl-RFWR-NH2) = 6.125 µg/mL

====

System: E.coli
Format: cell-based, Escherichia coli ATCC 25922
Residues, ends and D or L forms follow the SMILES beside them. *: point of attachment. Myristoyl = CCCCCCCCCCCCCC(=O)*; Lauroyl = CCCCCCCCCCCC(=O)*; Octanoyl = CCCCCCCC(=O)*
value type: Bacteria (MIC, ug/ml) E.coli

Solved cases (3 shown):
N=C(N)NCCC[C@H](NC(=O)[C@H](Cc1c[nH]c2ccccc12)NC(=O)[C@H](Cc1ccccc1)NC(=O)[C@@H](N)CCCNC(=N)N)C(N)=O [Lipopeptide 0] (H-RFWR-NH2; N-terminus and C-terminus assumed): >400 µg/mL
CCCCCCCC(=O)N[C@@H](CCCNC(=N)N)C(=O)N[C@@H](Cc1ccccc1)C(=O)N[C@@H](Cc1c[nH]c2ccccc12)C(=O)N[C@@H](CCCNC(=N)N)C(N)=O [Lipopeptide 2] (Octanoyl-RFWR-NH2): 100 µg/mL
CCCCCCCCCCCC(=O)N[C@@H](CCCNC(=N)N)C(=O)N[C@@H](Cc1ccccc1)C(=O)N[C@@H](Cc1c[nH]c2ccccc12)C(=O)N[C@@H](CCCNC(=N)N)C(N)=O [Lipopeptide 4] (Lauroyl-RFWR-NH2): 12.5 µg/mL

Let's switch to this compound now.
Reported Bacteria (MIC, ug/ml) E.coli ( CCCCCCCCCCCCCC(=O)N[C@@H](CCCNC(=N)N)C(=O)N[C@@H](Cc1ccccc1)C(=O)N[C@@H](Cc1c[nH]c2ccccc12)C(=O)N[C@@H](CCCNC(=N)N)C(N)=O [Lipopeptide 5] (Myristoyl-RFWR-NH2) ) = 25 µg/mL

Values from patent EP3434287B1
